biological target: Large subunit-rSCFV5 fusion protein; assay: cell-based or functional assay
Sequence (chain, as listed by the source): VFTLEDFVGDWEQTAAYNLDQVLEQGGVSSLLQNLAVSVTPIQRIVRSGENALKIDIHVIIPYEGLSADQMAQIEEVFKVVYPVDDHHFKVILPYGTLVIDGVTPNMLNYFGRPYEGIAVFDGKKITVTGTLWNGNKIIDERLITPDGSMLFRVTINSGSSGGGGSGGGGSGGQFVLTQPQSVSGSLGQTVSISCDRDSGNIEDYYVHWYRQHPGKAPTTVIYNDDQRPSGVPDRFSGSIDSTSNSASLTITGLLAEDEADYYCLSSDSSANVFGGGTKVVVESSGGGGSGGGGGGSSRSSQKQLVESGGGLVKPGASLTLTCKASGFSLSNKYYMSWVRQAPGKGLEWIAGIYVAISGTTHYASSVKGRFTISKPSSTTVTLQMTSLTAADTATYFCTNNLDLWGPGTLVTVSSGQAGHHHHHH
Each record here notes measured normalised luminescence at PCT 10000 pg/ml.
Readout kind: normalised luminescence at PCT 10000 pg/ml

Binder: VEGYRLFNKEW (peptide, part only; not given: rSCFV18 scFv part, part only) [rSCFV18-small subunit mutant fusion protein RB284]
Numeric value: 188000

Binder: VDGWRLHEKIS (peptide, part only; not given: rSCFV18 scFv part, part only) [rSCFV18-small subunit mutant fusion protein RA141]
Numeric value: 333000

Binder: VEGYRLFDKKW (peptide, part only; not given: rSCFV18 scFv part, part only) [rSCFV18-small subunit mutant fusion protein RB239]
Numeric value: 466000

Binder: VSGWRIHEKIS (peptide, part only; not given: rSCFV18 scFv part, part only) [rSCFV18-small subunit mutant fusion protein RA120]
Numeric value: 695000

These entries and their values trace back to patent EP4700040A1.
